Assay Info: Drug uptake in kidney of Zucker rat sub-chronic fa/fa prediabetic model at 12.5 mg/kg, po qd for 11 days
Format: ADME, organism-based
Assay Setup: read-out: Drug uptake
Outcome Measure: concentration at 264 h (ng/g)
Could you give me the number in ng/g? Just the number is fine.

Ask | Field request: concentration at 264 h | item: CN1CC[C@@H](N2C(=O)S/C(=C\c3ccc4c(cnn4Cc4ccc(Cl)cc4C(F)(F)F)c3)C2=O)[C@H](F)C1
Reply | 2660

###

Assay Info: AUC (0 to 24 hrs) in […] model at 3 mg/kg, po qd measured on day 1 post dose
Assay type: ADME, organism-based
Parameters: dose 3 mg/kg, time < 24 hr, route oral
Assay Setup: in vivo
Outcome Measure: AUC(0-t) at 24 h
Please report the result as a number followed by the unit.

Ask | Need AUC(0-t) at 24 h of CN1CC[C@@H](N2C(=O)S/C(=C\c3ccc4c(cnn4Cc4ccc(Cl)cc4C(F)(F)F)c3)C2=O)[C@H](F)C1 , thanks.
Reply | 1400 ng·h/mL

###

Assay Info: AUC (0 to 24 hrs) in CD-1 mouse at 20 mg/kg administered via oral gavage by LC-MS analysis
Format: ADME, organism-based
Set-up: dose 20 mg/kg, time < 24 hr, route oral
Assay Setup: in vivo
Outcome Measure: AUC(0-t) at 24 h (ng·h/mL)
Kindly answer with a numeric value in ng·h/mL, unit omitted.

Ask | Need AUC(0-t) at 24 h of CN1CC[C@@H](N2C(=O)S/C(=C\c3ccc4c(cnn4Cc4ccc(Cl)cc4C(F)(F)F)c3)C2=O)[C@H](F)C1 , thanks.
Reply | 14600

###

Tested On: Retinoic acid receptor beta (Homo sapiens)
Sequence (P10826 whole entry): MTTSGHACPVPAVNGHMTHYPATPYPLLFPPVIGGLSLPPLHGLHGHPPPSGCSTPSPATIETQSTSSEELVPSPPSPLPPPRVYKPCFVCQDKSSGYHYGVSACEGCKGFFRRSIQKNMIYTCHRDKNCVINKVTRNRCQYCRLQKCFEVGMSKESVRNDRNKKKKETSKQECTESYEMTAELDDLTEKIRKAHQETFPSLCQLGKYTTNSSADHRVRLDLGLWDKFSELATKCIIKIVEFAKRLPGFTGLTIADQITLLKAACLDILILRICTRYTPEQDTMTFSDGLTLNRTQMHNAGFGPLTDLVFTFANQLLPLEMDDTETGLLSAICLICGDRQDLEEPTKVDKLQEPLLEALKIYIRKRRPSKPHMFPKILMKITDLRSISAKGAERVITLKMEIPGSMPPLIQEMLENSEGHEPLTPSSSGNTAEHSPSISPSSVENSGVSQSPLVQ
Assay Info: Agonist activity at recombinant GST-tagged human RARbeta LBD assessed as fluorescein-labeled coactivator peptide recruitment preincubated with enzyme followed by coactivator addition by LanthaScreen TR-FRET assay
pEC50: −log10 of the molar value.
Outcome Measure: pEC50

Ask | What does the data say about its pEC50? Entry: CN1CC[C@@H](N2C(=O)S/C(=C\c3ccc4c(cnn4Cc4ccc(Cl)cc4C(F)(F)F)c3)C2=O)[C@H](F)C1
Reply | < 5.00

###

System: Rattus norvegicus
Assay Info: Decrease in fed plasma insulin level in Zucker rat sub-chronic fa/fa prediabetic model assessed as change in plasma insulin level at 10 mg/kg, po qd for 4 days measured on day 5 relative to control
Assay type: functional
Set-up: scale not given: the % may be the effect or the level left
Outcome Measure: Activity (%)
Enter your answer as a number in %; do not include the unit.

As a guide, the following entries are already answered.
1. CS(=O)(=O)NC(=O)CN1C(=O)S/C(=C\c2ccc3c(cnn3Cc3ccc(Cl)cc3C(F)(F)F)c2)C1=O; -14
2. C[C@H](N)CN1C(=O)S/C(=C\c2ccc3c(cnn3Cc3ccc(Cl)cc3C(F)(F)F)c2)C1=O; -60
3. CN1CC[C@H](N2C(=O)S/C(=C\c3ccc4c(cnn4Cc4ccc(Cl)cc4C(F)(F)F)c3)C2=O)[C@H](F)C1 (relative stereo); -73
4. O=C(CN1C(=O)S/C(=C\c2ccc3c(cnn3Cc3ccc(Cl)cc3C(F)(F)F)c2)C1=O)NS(=O)(=O)N1CCCC1; -47
5. O=C1S/C(=C\c2ccc3c(cnn3Cc3ccc(Cl)cc3C(F)(F)F)c2)C(=O)N1C[C@H]1COCCN1; -52

Ask | Record request: Activity value, item COc1ccc(Cn2ncc3cc(/C=C4\SC(=O)N(CCN5CCOCC5)C4=O)ccc32)c(C(F)(F)F)c1
Reply | -21

Ask | I have this compound here, O=C1S/C(=C\c2ccc3c(cnn3Cc3ccc(Cl)cc3C(F)(F)F)c2)C(=O)N1CCN1CCCC1 , and I need its recorded Activity.
Reply | -49

Ask | // Activity lookup, key: NS(=O)(=O)NC(=O)CN1C(=O)S/C(=C\c2ccc3c(cnn3Cc3ccc(Cl)cc3C(F)(F)F)c2)C1=O
Reply | -51
